B1: glmS ribozyme (parent)
chain: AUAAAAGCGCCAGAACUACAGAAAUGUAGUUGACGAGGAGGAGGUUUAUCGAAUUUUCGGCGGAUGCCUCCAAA

variants of: B1; assay: self-cleavage kobs at 10000 uM GlcN6P; higher = faster cleavage; RNA array; conditions: with glucosamine-6-phosphate
This sample holds only a part of the variants without activity.
ATTRIBUTE_MEASURED: self-cleavage kobs at 10000 uM GlcN6P (s⁻¹)
Give bare numbers, in s⁻¹.

Here's what some known entries look like.
| CHANGES | self-cleavage kobs at 10000 uM GlcN6P (s⁻¹) |
| --- | --- |
| G43A C67G C68G | 7.38e-05 |
| G32U U65G | 9.34e-05 |
| U56A G66C | 0.000238 |

Here is the next item to consider.
State the recorded self-cleavage kobs at 10000 uM GlcN6P for this entry: A12G U55C
0.000755
